A collection of compounds and their measured relative viability
- System: NCI-H2228
- testProtocol: relative viability (nuclei count vs DMSO), 5 days (fraction); higher = more cells survive
- measurementSetup: first compound 0.02 µM

Known relative viability results, listed for orientation:
# compound, result
measured = [
    ("CCNC(=O)c1noc(-c2cc(C(C)C)c(O)cc2O)c1-c1ccc(CN2CCOCC2)cc1 [Luminespib] + C[C@@H](Oc1cc(-c2cnn(C3CCNCC3)c2)cnc1N)c1c(Cl)ccc(F)c1Cl [Crizotinib] (partner 1 µM)", 0.264),
    ("CN1CCN(CCOc2cc(OC3CCOCC3)c3c(Nc4c(Cl)ccc5c4OCO5)ncnc3c2)CC1 [Saracatinib] + CCNC(=O)c1noc(-c2cc(C(C)C)c(O)cc2O)c1-c1ccc(CN2CCOCC2)cc1 [Luminespib] (partner 0.01 µM)", 0.157),
    ("CCNC(=O)c1noc(-c2cc(C(C)C)c(O)cc2O)c1-c1ccc(CN2CCOCC2)cc1 [Luminespib] + Cc1nc(NC(=O)N2CCC[C@H]2C(N)=O)sc1-c1ccnc(C(C)(C)C(F)(F)F)c1 [Alpelisib] (partner 2 µM)", 0.156),
]

Reported relative viability ( CN1CCN(CCOc2cc(OC3CCOCC3)c3c(Nc4c(Cl)ccc5c4OCO5)ncnc3c2)CC1 [Saracatinib] + CC(=O)Nc1cccc(-n2c(=O)n(C3CC3)c(=O)c3c(Nc4ccc(I)cc4F)n(C)c(=O)c(C)c32)c1 [Trametinib] (partner 0.02 µM) ) = 0.616

---

Quick reference for relative viability among some compounds
- Test system: HCC-366
- testProtocol: relative viability (nuclei count vs DMSO), 5 days (fraction); higher = more cells survive
- measurementSetup: first compound 0.006325 µM
Field format: numeric only.

CCNC(=O)c1noc(-c2cc(C(C)C)c(O)cc2O)c1-c1ccc(CN2CCOCC2)cc1 [Luminespib] + Cc1cc(Nc2cc(N3CCN(C)CC3)nc(Sc3ccc(NC(=O)C4CC4)cc3)n2)n[nH]1 [Tozasertib] (partner 0.1 µM) has a reported relative viability of 0.105

For reference, reported relative viability for CCNC(=O)c1noc(-c2cc(C(C)C)c(O)cc2O)c1-c1ccc(CN2CCOCC2)cc1 [Luminespib] + COc1cccc2cc(-c3nc([C@H]4CC[C@H](C(=O)O)CC4)n4ncnc(N)c34)[nH]c12 [OSI-027] (partner 0.5 µM) stands at 0.832

Query CCNC(=O)c1noc(-c2cc(C(C)C)c(O)cc2O)c1-c1ccc(CN2CCOCC2)cc1 [Luminespib] + CC(=O)Nc1cccc(-n2c(=O)n(C3CC3)c(=O)c3c(Nc4ccc(I)cc4F)n(C)c(=O)c(C)c32)c1 [Trametinib] (partner 0.02 µM) yields relative viability of 0.363

---

- Tested on: HCC-366
- testProtocol: relative viability (nuclei count vs DMSO), 5 days (fraction); higher = more cells survive
- measurementSetup: first compound 0.002 µM
measuredQuantity: relative viability
Simply state the number, no unit and no words.

# compound, relative viability
records = [
    ("CCNC(=O)c1noc(-c2cc(C(C)C)c(O)cc2O)c1-c1ccc(CN2CCOCC2)cc1 [Luminespib] + CS(=O)(=O)CCNCc1ccc(-c2ccc3ncnc(Nc4ccc(OCc5cccc(F)c5)c(Cl)c4)c3c2)o1 [Lapatinib] (partner 2 µM)", 1.07),
    ("CCNC(=O)c1noc(-c2cc(C(C)C)c(O)cc2O)c1-c1ccc(CN2CCOCC2)cc1 [Luminespib] + C[C@]1(O)C[C@@H](c2nc(-c3ccc4ccc(-c5ccccc5)nc4c3)c3c(N)nccn32)C1 [Linsitinib] (partner 1 µM)", 0.56),
    ("CCNC(=O)c1noc(-c2cc(C(C)C)c(O)cc2O)c1-c1ccc(CN2CCOCC2)cc1 [Luminespib] + C[C@@H](Oc1cc(-c2cnn(C3CCNCC3)c2)cnc1N)c1c(Cl)ccc(F)c1Cl [Crizotinib] (partner 1 µM)", 0.695),
    ("CCNC(=O)c1noc(-c2cc(C(C)C)c(O)cc2O)c1-c1ccc(CN2CCOCC2)cc1 [Luminespib] + Cc1nc(NC(=O)N2CCC[C@H]2C(N)=O)sc1-c1ccnc(C(C)(C)C(F)(F)F)c1 [Alpelisib] (partner 2 µM)", 0.442),
    ("CCNC(=O)c1noc(-c2cc(C(C)C)c(O)cc2O)c1-c1ccc(CN2CCOCC2)cc1 [Luminespib] + COc1cccc2cc(-c3nc([C@H]4CC[C@H](C(=O)O)CC4)n4ncnc(N)c34)[nH]c12 [OSI-027] (partner 0.5 µM)", 1.11),
]

Attention now turns to another entry.
Record summary for CCNC(=O)c1noc(-c2cc(C(C)C)c(O)cc2O)c1-c1ccc(CN2CCOCC2)cc1 [Luminespib] + O=C(CCCCCCC(=O)Nc1ccccc1)NO [Vorinostat] (partner 1 µM) : reported relative viability = 0.38

---

- System: RERF-LC-KJ
- testProtocol: relative viability (nuclei count vs DMSO), 5 days (fraction); higher = more cells survive
- measurementSetup: first compound 0.01 µM
Recorded measurements of relative viability, one per entry
Simply state the number, no unit and no words.

Check out these entries, answers already filled in.
# compound, relative viability
records = [
    ("Cc1cn(-c2cc(NC(=O)c3ccc(C)c(Nc4nccc(-c5cccnc5)n4)c3)cc(C(F)(F)F)c2)cn1 [Nilotinib] + O=C(c1cc(Cc2n[nH]c(=O)c3ccccc23)ccc1F)N1CCN(C(=O)C2CC2)CC1 [Olaparib] (partner 8 µM)", 0.976),
    ("Cc1cn(-c2cc(NC(=O)c3ccc(C)c(Nc4nccc(-c5cccnc5)n4)c3)cc(C(F)(F)F)c2)cn1 [Nilotinib] + CC(C)C[C@H](NC(=O)[C@H](Cc1ccccc1)NC(=O)c1cnccn1)B(O)O [Bortezomib] (partner 0.002 µM)", 1.22),
]

Kindly note the recorded relative viability for Cc1cn(-c2cc(NC(=O)c3ccc(C)c(Nc4nccc(-c5cccnc5)n4)c3)cc(C(F)(F)F)c2)cn1 [Nilotinib] + COc1cc2c(Oc3ccc(NC(=O)C4(C(=O)Nc5ccc(F)cc5)CC4)cc3F)ccnc2cc1OCCCN1CCOCC1 [Foretinib] (partner 0.25 µM) , which is 0.924

// recorded relative viability for Cc1cn(-c2cc(NC(=O)c3ccc(C)c(Nc4nccc(-c5cccnc5)n4)c3)cc(C(F)(F)F)c2)cn1 [Nilotinib] + Cc1nc(NC(=O)N2CCC[C@H]2C(N)=O)sc1-c1ccnc(C(C)(C)C(F)(F)F)c1 [Alpelisib] (partner 2 µM) : 0.838

Form field relative viability, entry Cc1cn(-c2cc(NC(=O)c3ccc(C)c(Nc4nccc(-c5cccnc5)n4)c3)cc(C(F)(F)F)c2)cn1 [Nilotinib] + COc1cccc2cc(-c3nc([C@H]4CC[C@H](C(=O)O)CC4)n4ncnc(N)c34)[nH]c12 [OSI-027] (partner 0.5 µM) : 0.53

What the record says about Cc1cn(-c2cc(NC(=O)c3ccc(C)c(Nc4nccc(-c5cccnc5)n4)c3)cc(C(F)(F)F)c2)cn1 [Nilotinib] + CCNC(=O)c1noc(-c2cc(C(C)C)c(O)cc2O)c1-c1ccc(CN2CCOCC2)cc1 [Luminespib] (partner 0.01 µM) : relative viability is 1.34

---

- System: NCI-H1793
- testProtocol: relative viability (nuclei count vs DMSO), 5 days (fraction); higher = more cells survive
- measurementSetup: first compound 2.53 µM
measuredQuantity: relative viability
Just the number, please.

# compound, targetOfAssay, number
data = [
    ("Nc1cccc2c1CN(C1CCC(=O)NC1=O)C2=O (configuration not stated) [Lenalidomide] + CC1(C)CCC(c2ccc(Cl)cc2)=C(CN2CCN(c3ccc(C(=O)NS(=O)(=O)c4ccc(N[C@H](CCN5CCOCC5)CSc5ccccc5)c(S(=O)(=O)C(F)(F)F)c4)cc3)CC2)C1 [Navitoclax] (partner 0.5 µM)", "NCI-H1793", 0.426),
]

We next turn to a different compound, shown below.
Note to self: relative viability recorded for Nc1cccc2c1CN(C1CCC(=O)NC1=O)C2=O (configuration not stated) [Lenalidomide] + Nc1ncn([C@H]2C[C@H](O)[C@@H](CO)O2)c(=O)n1 [Decitabine] (partner 2 µM) was 0.535

---

- Test system: LCLC-103H
- testProtocol: relative viability (nuclei count vs DMSO), 5 days (fraction); higher = more cells survive
- measurementSetup: first compound 0.02 µM
Measured relative viability, listed per entry for reference.
Format: numeric value only, no unit, no commentary.

# count of solved cases: 2
# molecule, relative viability
measured = [
    ("CN1CCN(CCOc2cc(OC3CCOCC3)c3c(Nc4c(Cl)ccc5c4OCO5)ncnc3c2)CC1 [Saracatinib] + COc1cc2c(Oc3ccc(NC(=O)C4(C(=O)Nc5ccc(F)cc5)CC4)cc3F)ccnc2cc1OCCCN1CCOCC1 [Foretinib] (partner 0.25 µM)", 0.698),
    ("CN1CCN(CCOc2cc(OC3CCOCC3)c3c(Nc4c(Cl)ccc5c4OCO5)ncnc3c2)CC1 [Saracatinib] + Cc1nc(NC(=O)N2CCC[C@H]2C(N)=O)sc1-c1ccnc(C(C)(C)C(F)(F)F)c1 [Alpelisib] (partner 2 µM)", 0.972),
]

Sure, the documented relative viability for CN1CCN(CCOc2cc(OC3CCOCC3)c3c(Nc4c(Cl)ccc5c4OCO5)ncnc3c2)CC1 [Saracatinib] + C[C@@H](Oc1cc(-c2cnn(C3CCNCC3)c2)cnc1N)c1c(Cl)ccc(F)c1Cl [Crizotinib] (partner 1 µM) is 1.11
